// reported binding signal per item
Target Desc: GST-Dm-Relish (Drosophila melanogaster, UniProt Q94527 99-473)
Sequence: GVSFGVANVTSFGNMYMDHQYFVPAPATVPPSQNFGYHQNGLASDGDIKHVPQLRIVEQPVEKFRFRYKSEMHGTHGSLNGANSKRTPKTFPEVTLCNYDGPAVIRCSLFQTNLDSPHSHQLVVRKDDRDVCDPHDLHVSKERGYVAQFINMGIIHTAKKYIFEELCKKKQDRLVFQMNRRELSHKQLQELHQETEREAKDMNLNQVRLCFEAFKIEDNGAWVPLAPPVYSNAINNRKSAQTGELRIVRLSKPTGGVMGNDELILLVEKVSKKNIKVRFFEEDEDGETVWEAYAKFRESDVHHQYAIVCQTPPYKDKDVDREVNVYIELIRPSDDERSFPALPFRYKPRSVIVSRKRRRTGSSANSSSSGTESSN
Experiment Description: protein-binding microarray (PBM); PBM: ~300 nM protein, 6 mM HEPES pH 7.8, 80 mM KCl, 0.5 mM EDTA, 0.5 mM EGTA, 6% glycerol, 35 ng/ul poly-dIdC, 1% milk, 1 h, room temperature; high values mean tight binding
Condition Description: dsDNA, one strand shown
Write the value in z-score as a bare number.

Example cases with answers are listed next.
QUERY: What value of binding signal on GST-Dm-Relish (Drosophila melanogaster, UniProt Q94527 99-473) does CCGATTAACATCAGGGGGGGTTATGATGTTAATCGGGTCTTGATTCGCTTGACGCTGCTG have?
RESULT: 6.55

QUERY: What value of binding signal on GST-Dm-Relish (Drosophila melanogaster, UniProt Q94527 99-473) does CCGATTAACATCAAAGGACCCCCTGATGTTAATCGGGTCTTGATTCGCTTGACGCTGCTG have?
RESULT: 4.18

QUERY: What value of binding signal on GST-Dm-Relish (Drosophila melanogaster, UniProt Q94527 99-473) does CCGATTAACATCAGCGGAAATCCTGATGTTAATCGGGTCTTGATTCGCTTGACGCTGCTG have?
RESULT: 1.26

QUERY: What value of binding signal on GST-Dm-Relish (Drosophila melanogaster, UniProt Q94527 99-473) does CCGATTAACATCATTCGGGAAAATGATGTTAATCGGGTCTTGATTCGCTTGACGCTGCTG have?
RESULT: 1.3

QUERY: What value of binding signal on GST-Dm-Relish (Drosophila melanogaster, UniProt Q94527 99-473) does CCGATTAACATCAGGAGCCCCCCTGATGTTAATCGGGTCTTGATTCGCTTGACGCTGCTG have?
RESULT: 6.02

QUERY: What value of binding signal on GST-Dm-Relish (Drosophila melanogaster, UniProt Q94527 99-473) does CCGATTAACATCACTAAATTCCCTGATGTTAATCGGGTCTTGATTCGCTTGACGCTGCTG have?
RESULT: 3.63

QUERY: What value of binding signal on GST-Dm-Relish (Drosophila melanogaster, UniProt Q94527 99-473) does CCGATTAACATCAATAACCCCCCTGATGTTAATCGGGTCTTGATTCGCTTGACGCTGCTG have?
RESULT: 8.07

QUERY: What value of binding signal on GST-Dm-Relish (Drosophila melanogaster, UniProt Q94527 99-473) does CCGATTAACATCAGAAATTACCATGATGTTAATCGGGTCTTGATTCGCTTGACGCTGCTG have?
RESULT: 2.33

***
QUERY: What value of binding signal on GST-Dm-Relish (Drosophila melanogaster, UniProt Q94527 99-473) does CCGATTAACATCAGGGGGTAAGATGATGTTAATCGGGTCTTGATTCGCTTGACGCTGCTG have?
RESULT: 1.62

QUERY: What value of binding signal on GST-Dm-Relish (Drosophila melanogaster, UniProt Q94527 99-473) does CCGATTAACATCAAGGAATTCCGTGATGTTAATCGGGTCTTGATTCGCTTGACGCTGCTG have?
RESULT: 1.78

QUERY: What value of binding signal on GST-Dm-Relish (Drosophila melanogaster, UniProt Q94527 99-473) does CCGATTAACATCAGCATTCCCCCTGATGTTAATCGGGTCTTGATTCGCTTGACGCTGCTG have?
RESULT: 4.53

QUERY: What value of binding signal on GST-Dm-Relish (Drosophila melanogaster, UniProt Q94527 99-473) does CCGATTAACATCAAAAAGACCCCTGATGTTAATCGGGTCTTGATTCGCTTGACGCTGCTG have?
RESULT: 6.3

QUERY: What value of binding signal on GST-Dm-Relish (Drosophila melanogaster, UniProt Q94527 99-473) does CCGATTAACATCAATAAATGTACTGATGTTAATCGGGTCTTGATTCGCTTGACGCTGCTG have?
RESULT: 1.14

QUERY: What value of binding signal on GST-Dm-Relish (Drosophila melanogaster, UniProt Q94527 99-473) does CCGATTAACATCAGGGGAATAACTGATGTTAATCGGGTCTTGATTCGCTTGACGCTGCTG have?
RESULT: 9.39

QUERY: What value of binding signal on GST-Dm-Relish (Drosophila melanogaster, UniProt Q94527 99-473) does CCGATTAACATCAGGAAACCACCTGATGTTAATCGGGTCTTGATTCGCTTGACGCTGCTG have?
RESULT: 7.57

QUERY: What value of binding signal on GST-Dm-Relish (Drosophila melanogaster, UniProt Q94527 99-473) does CCGATTAACATCAGATATTCCCCTGATGTTAATCGGGTCTTGATTCGCTTGACGCTGCTG have?
RESULT: 5.36

QUERY: What value of binding signal on GST-Dm-Relish (Drosophila melanogaster, UniProt Q94527 99-473) does CCGATTAACATCAAGGAGTCCCCTGATGTTAATCGGGTCTTGATTCGCTTGACGCTGCTG have?
RESULT: 8.59

QUERY: What value of binding signal on GST-Dm-Relish (Drosophila melanogaster, UniProt Q94527 99-473) does CCGATTAACATCACAGTCCCCCCTGATGTTAATCGGGTCTTGATTCGCTTGACGCTGCTG have?
RESULT: 4.6

---

Target Desc: GST-Aq-NF-kB (Amphimedon queenslandica, UniProt A9Y5G7 2-389)
Sequence: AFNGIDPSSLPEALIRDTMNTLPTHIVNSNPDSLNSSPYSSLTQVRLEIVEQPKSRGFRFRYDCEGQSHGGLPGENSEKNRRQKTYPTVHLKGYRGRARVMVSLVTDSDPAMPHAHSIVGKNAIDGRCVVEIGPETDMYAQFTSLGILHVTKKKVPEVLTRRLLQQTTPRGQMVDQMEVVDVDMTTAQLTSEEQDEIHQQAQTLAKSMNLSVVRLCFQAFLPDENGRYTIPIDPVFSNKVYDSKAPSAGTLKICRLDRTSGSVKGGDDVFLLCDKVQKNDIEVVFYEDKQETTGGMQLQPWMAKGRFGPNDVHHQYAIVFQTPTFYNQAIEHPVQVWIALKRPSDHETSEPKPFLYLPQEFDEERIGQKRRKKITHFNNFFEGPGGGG
Experiment Description: protein-binding microarray (PBM); PBM: ~300 nM protein, 6 mM HEPES pH 7.8, 80 mM KCl, 0.5 mM EDTA, 0.5 mM EGTA, 6% glycerol, 35 ng/ul poly-dIdC, 1% milk, 1 h, room temperature; Ap Aiptasia and Nv Nematostella (sea anemones) / Co Capsaspora / Aq Amphimedon (sponge) / Dm Drosophila / Hu human; RHD is the Rel homology domain; high values mean tight binding
Condition Description: dsDNA, one strand shown
Experimental Endpoint: binding signal

QUERY: For the sequence shown here, CCGATTAACATCAGGCAAGCCCCTGATGTTAATCGGGTCTTGATTCGCTTGACGCTGCTG , give the reported binding signal.
RESULT: 5.11 z-score

QUERY: For the sequence shown here, CCGATTAACATCAAATTGTCCCCTGATGTTAATCGGGTCTTGATTCGCTTGACGCTGCTG , give the reported binding signal.
RESULT: 4.84 z-score

QUERY: For the sequence shown here, CCGATTAACATCAAGGGGGTTTATGATGTTAATCGGGTCTTGATTCGCTTGACGCTGCTG , give the reported binding signal.
RESULT: 6.24 z-score

QUERY: For the sequence shown here, CCGATTAACATCATACCCCCCCATGATGTTAATCGGGTCTTGATTCGCTTGACGCTGCTG , give the reported binding signal.
RESULT: 3.92 z-score

***
QUERY: For the sequence shown here, CCGATTAACATCAAATGACCCCCTGATGTTAATCGGGTCTTGATTCGCTTGACGCTGCTG , give the reported binding signal.
RESULT: 4.02 z-score

QUERY: For the sequence shown here, CCGATTAACATCACTAAACCCCCTGATGTTAATCGGGTCTTGATTCGCTTGACGCTGCTG , give the reported binding signal.
RESULT: 4.92 z-score

QUERY: For the sequence shown here, CCGATTAACATCAGGGGATTTGATGATGTTAATCGGGTCTTGATTCGCTTGACGCTGCTG , give the reported binding signal.
RESULT: 4.26 z-score

QUERY: For the sequence shown here, CCGATTAACATCATTTATCCCGGTGATGTTAATCGGGTCTTGATTCGCTTGACGCTGCTG , give the reported binding signal.
RESULT: 1.14 z-score

QUERY: For the sequence shown here, CCGATTAACATCAGGACATTCCCTGATGTTAATCGGGTCTTGATTCGCTTGACGCTGCTG , give the reported binding signal.
RESULT: 6.9 z-score

QUERY: For the sequence shown here, CCGATTAACATCAGGGGGGCACCTGATGTTAATCGGGTCTTGATTCGCTTGACGCTGCTG , give the reported binding signal.
RESULT: 4.5 z-score
